- Assay Comment: PHH natural infection assay, cytotoxicity (Cell Counting Kit-8)
- Assay type: cell-based
- Experimental Parameters: human, HBV-infected primary human hepatocytes, CCK8, end of treatment
Readout Kind: CC50 at 144 h

Record excerpt, results attached:
{"Molecule": "O=C(NC1CC2(C1)CC(c1nc3cc(Cl)ccc3o1)C2)c1ccc(Cl)o1 (stereo not shown)", "CC50 at 144 h": "> 100 µM"}
{"Molecule": "N=S(=O)(c1ccc(C(=O)NC2CC3(C2)CC(c2nc4cc(Cl)ccc4o2)C3)o1)N1CCCC1 (stereo not shown)", "CC50 at 144 h": "> 10 µM"}
{"Molecule": "CC(C)(C)S(=O)(=O)c1ccc(C(=O)NC2CC3(C2)CC(c2nc4cc(Cl)ccc4o2)C3)o1 (stereo not shown)", "CC50 at 144 h": "> 10 µM"}

For the next question, use this molecule.
Noted for O=C(NC1CC2(C1)CC(c1nc3cc(Cl)ccc3o1)C2)c1ccc(S2(=O)=NCCC2)o1 (stereo not shown) : its CC50 at 144 h reads > 100 µM

###

- Assay Comment: PHH natural infection assay, cytotoxicity (Cell Counting Kit-8)
- Type: cell-based
- Experimental Parameters: human, HBV-infected primary human hepatocytes, CCK8, end of treatment
Readout Kind: CC50 at 144 h

For reference, reported CC50 at 144 h for COCC(=O)NS(=O)(=O)c1ccc(C(=O)N[C@H]2CC3(C2)C[C@H](c2nc4cc(Cl)ccc4o2)C3)o1 (single isomer, unassigned) stands at > 100 µM

###

- System: primary human hepatocyte (PHH)
- Assay Comment: PHH natural infection assay, cytotoxicity (Cell Counting Kit-8)
- Assay type: cell-based
- Experimental Parameters: HBV-infected primary human hepatocytes, CCK8, end of treatment
Below, each entry is listed with its recorded CC50.

{"Compound": "N=S(=O)(CC1CC1)c1ccc(C(=O)NC2CC3(C2)CC(c2nc4cc(Cl)ccc4o2)C3)o1 (single isomer, unassigned) [Example 54-c]", "CC50": "> 10 µM"}

So, N=S(=O)(c1ccc(C(=O)NC2CC3(C2)CC(c2nc4cc(Cl)ccc4o2)C3)o1)C1CC1 (single isomer, unassigned) [Example 53-d] ? Its CC50 was 92.8 µM

Consider N=S(=O)(c1ccc(C(=O)NC2CC3(C2)CC(c2nc4cc(Cl)ccc4o2)C3)o1)C1CC1 (single isomer, unassigned) [Example 53-b] . Its measured CC50 is > 10 µM

O=C(NC1CC2(C1)CC(c1nc3cc(Cl)ccc3o1)C2)c1ccc([S+]([O-])CC2CC2)o1 (single isomer, unassigned) [Example 19-b] has a reported CC50 of > 10 µM

Lab note: measured CC50 of N=S(=O)(CC1CC1)c1ccc(C(=O)NC2CC3(C2)CC(c2nc4cc(Cl)ccc4o2)C3)o1 (single isomer, unassigned) [Example 54-a] was > 10 µM

###

- Assay Comment: PHH natural infection assay, cytotoxicity (Cell Counting Kit-8)
- Type: cell-based
- Experimental Parameters: human, HBV-infected primary human hepatocytes, CCK8, end of treatment
Below, each entry is listed alongside its reported CC50 at 144 h.

{"Compound": "O=C(NC1CC2(C1)CC(c1nc3cc(Cl)ccc3o1)C2)c1ccc(S(=O)(=O)NC(=O)C2CCS(=O)(=O)C2)o1 (stereo not shown) [Example 84]", "Readout Kind": "CC50 at 144 h", "Result": "> 10 µM"}
{"Compound": "N#Cc1ccc(C(=O)NC2CC3(C2)CC(c2nc4cc(Cl)ccc4o2)C3)o1 (stereo not shown) [Example 2]", "Readout Kind": "CC50 at 144 h", "Result": "61.6 µM"}
{"Compound": "N=S(=O)(Cc1ccc(C(=O)NC2CC3(C2)CC(c2nc4cc(Cl)ccc4o2)C3)o1)C1CC1 (stereo not shown) [Example 60]", "Readout Kind": "CC50 at 144 h", "Result": "> 100 µM"}

As a next step, examine the compound that follows.
The measured CC50 at 144 h associated with N=S(=O)(CC1COC1)c1ccc(C(=O)NC2CC3(C2)CC(c2nc4cc(Cl)ccc4o2)C3)o1 (stereo not shown) [Example 56] reads > 100 µM

src = patent US20230286969A1
